log10 EC50 for assorted substances
- System tested: hGIPR (Homo sapiens)
- Sequence (P48546 22-466): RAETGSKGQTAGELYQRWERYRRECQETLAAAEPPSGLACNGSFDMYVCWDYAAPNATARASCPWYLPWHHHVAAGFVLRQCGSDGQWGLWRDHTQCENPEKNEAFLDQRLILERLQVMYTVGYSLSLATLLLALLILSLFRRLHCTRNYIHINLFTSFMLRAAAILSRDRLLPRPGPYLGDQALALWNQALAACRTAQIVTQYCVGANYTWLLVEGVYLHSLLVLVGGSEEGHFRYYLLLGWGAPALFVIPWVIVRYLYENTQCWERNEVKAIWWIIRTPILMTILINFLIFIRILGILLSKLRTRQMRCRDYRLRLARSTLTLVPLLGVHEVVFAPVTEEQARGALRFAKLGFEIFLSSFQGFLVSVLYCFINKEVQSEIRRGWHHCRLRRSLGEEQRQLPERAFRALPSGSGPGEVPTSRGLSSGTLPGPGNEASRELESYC
- Method summary: Functional cAMP activity in the presence of 1% HSA
- Format: cell-based
- Run parameters: read-out: cAMP Rel EC50, hGIPR
Starred links: 1 amine or outer side, 2 acyl side, 3 side chain; linkers in the order of their positions; H or OH if unused. Non-standard residues stand in square brackets, D forms with d. Groups on a side chain read outwards from the residue. No end group written: not given here. *: point of attachment. C18 diacid = O=C(O)CCCCCCCCCCCCCCCCC(=O)*; αMePhe(2-F) = C[C@](N)(Cc1ccccc1F)C(=O)O; γGlu = O=C(O)[C@H](CCC(=O)[*:2])N[*:1]; αMe4Pal = C[C@](N)(Cc1ccncc1)C(=O)O; αMeY = C[C@](N)(Cc1ccc(O)cc1)C(=O)O; 4Pal = N[C@@H](Cc1ccncc1)C(=O)O; αMeL = CC(C)C[C@](C)(N)C(=O)O; αMeS = C[C@](N)(CO)C(=O)O; Orn = NCCC[C@H](N)C(=O)O; AEEA = NCCOCCOCC(=O)O; Aib = CC(C)(N)C(=O)O
Please keep in mind that the values are log10 of EC50 expressed in nM.

Consider the worked cases shown below.
| Substance | System tested | log10 EC50 |
| --- | --- | --- |
| H-Y[Aib]QGT[αMePhe(2-F)]TSD[4Pal][αMeS]I[αMeL]LD[Orn]K([AEEA-γGlu-C18 diacid])AQ[αMe4Pal]EFI[dE][αMeY]LVEGGPSSGEPPPESE-NH2 [Example 1157] | hGIPR (Homo sapiens) | 0.11 |
| Y[Aib]QGT[αMePhe(2-F)]TSD[4Pal][αMeS]I[αMeL]LD[Orn]K([Glu-γGlu-C18 diacid])AQ[Aib][Orn]FI[dE][αMeY]LSEGGPSSGEPPPSGTEE-NH2 [Example 564] | hGIPR (Homo sapiens) | 1.03 |
| H-Y[Aib]QGT[αMePhe(2-F)]TSD[4Pal]SI[αMeL]LDKK([γGlu-γGlu-C18 diacid])AQ[Aib]AFIEYLEEGGPSSGAPPPSGTGE-NH2 [Example 622] | hGIPR (Homo sapiens) | 0.08 |
| H-Y[Aib]QGT[αMePhe(2-F)]TSD[4Pal][αMeS]I[αMeL]LD[Orn]K([γGlu-γGlu-C18 diacid])AQ[Aib]NFI[dE][αMeY]LQEGGPSSGEPPPEGT-NH2 [Example 525] | hGIPR (Homo sapiens) | 0.32 |
| Y[Aib]QGT[αMePhe(2-F)]TSD[4Pal][αMeS]I[αMeL]LE[Orn]K([AEEA-γGlu-C18 diacid])AQ[αMe4Pal]EFI[dE][αMeY]LVEGGPSSGAPPPSGS-NH2 [Example 768] | hGIPR (Homo sapiens) | 0.42 |

Then there is this substance:
Input: Give its log10 EC50 value. Item: H-Y[Aib]QGT[αMePhe(2-F)]TSD[4Pal][αMeS]I[αMeL]LD[Orn]K([γGlu-γGlu-C18 diacid])AQ[αMe4Pal]EFI[dE][αMeY]LIEGGPSSGAPPPEGGGEE-NH2 [Example 1220]
Output: -0.22
